assay: NCI Yeast Anticancer Drug Screen. Data for the rad18 strain (AID 177); conditions: S. cerevisiae rad18 mutant growth inhibition; at 1.2 µM
About 79,000 compounds went through this panel and 15% of them were active in at least one assay; those are over-represented in the sample as a whole. Active and inactive are the calls of the source. No stated cut-off is given here; in the data, active means growth inhibition above about 70%; inactive means the rest.
Pick one and only one: y = active, n = inactive

| MOLECULE | CLASS_LABEL |
| --- | --- |
| CC(O)C(O)C(O)C(/C=N\Nc1ccccc1)=N/Nc1ccccc1 (stereo not drawn) | n |
| N/C(=N\OC(=O)NC(Cl)=C(Cl)Cl)c1cc(C(F)(F)F)cc(C(F)(F)F)c1 | n |
| CCCCCCCCNC(=O)C1=C(C)NC(C)=C(C(=O)NCCCCCCCC)C1 | n |

*Q* Each molecule tested received a call. Report the one for O=C1C(=O)c2ccccc2C=C1[N+](=O)[O-] .
*A* n

*Q* Each molecule tested received a call. Report the one for Nc1nc(-c2cccnc2)cc(-c2cc(-c3cccnc3)nc(N)n2)n1 .
*A* n

---

Can you tell me growth inhibition for the items I'm about to list?
assay: NCI Yeast Anticancer Drug Screen. Data for the mgt1 strain (AID 153); details: S. cerevisiae mgt1 mutant growth inhibition; at 1.2 µM; hits give high values
The panel holds about 79,000 compounds, 15% with a hit somewhere; the sample as a whole holds those more often. Active and inactive are the calls of the source. Cut-off read from the data, not from the text of the source: active = growth inhibition above about 70%; inactive = the rest.

| COMPOUND | growth inhibition |
| --- | --- |
| O=Cc1cccc2ccc3ccccc3c12 | -2% (inactive) |
| CN1Cc2ccccc2/C=C\c2ccccc21 | 0% (inactive) |
| CSC(=S)Nc1cc(C)ccn1 | -34% (inactive) |
| CCc1ccc(NS(=O)(=O)c2ccccc2)c([N+](=O)[O-])c1 | 0% (inactive) |

Here are 2 compounds. What values of growth inhibition were reported for them?
1. COc1cc2c3c(cccc3c1)C(=O)N(CCN(C)C)C2=O
2. COc1ccc(Br)c(C(=O)Sc2nnnn2-c2cccc(Cl)c2)c1

*A*
1. -24% (inactive)
2. -10% (inactive)

Here are 4 compounds. What values of growth inhibition were reported for them?
1. CCOC(=O)[C@H]1Nc2ccccc2C2c3ccccc3CC21 (some centres not stated)
2. CC(=O)OCC(=O)C1(O)CCC2C3CCC4CCCCC4(C)C3CCC21C (configuration not stated)
3. NC(=NCc1ccccc1)N/N=C\c1ccnc2ccccc12
4. COc1cc2c(cc1[N+](=O)[O-])C(=O)C(Br)(Br)CCC2

*A*
1. -4% (inactive)
2. 3% (inactive)
3. -4% (inactive)
4. 50% (inactive)

Here are 8 compounds. What values of growth inhibition were reported for them?
1. Fc1ccc(NC(=S)SCc2ccc3c(c2)OCO3)cc1F
2. Cn1ccnc1Oc1ccc(Cl)cc1
3. NC1=NS(=O)(=O)N=C(N)C1=Cc1ccc([N+](=O)[O-])o1
4. COC(=O)c1ccc(NCC2=CC(=O)C=CC2=O)cc1O
5. Cc1ccc(NC(=O)/C(Cl)=C(\Cl)C(=O)O)cc1C
6. CCCCCCCCCCCCCCCCCCOCC(O)COP(=O)(O)OCC1OC(n2cc(F)c(=O)[nH]c2=O)CC1O (configuration not stated)
7. Cc1ccc(-n2cc(-c3ccc(Cl)cc3)c(C#N)c2N)cc1
8. c1ccc2c(c1)C(=NCCCN1CCCCCC1)c1cccn1-2

*A*
-3% (inactive)
-4% (inactive)
7% (inactive)
9% (inactive)
4% (inactive)
30% (inactive)
1% (inactive)
-4% (inactive)

Here are 4 compounds. What values of growth inhibition were reported for them?
1. CCNc1nnc(CSc2nc(-c3ccccc3)c(-c3ccccc3)[nH]2)s1
2. CC1(C)C(=O)OC(n2cc(F)c(=O)[nH]c2=O)C1=O (configuration not stated)
3. O=C(/C=C\c1ccc(Cl)cc1Cl)c1cccs1
4. CNC(=O)OCc1c(COC(=O)NC)c(-c2ccc(-c3ccccc3)cc2)n(C)c1C

*A*
-9% (inactive)
19% (inactive)
-4% (inactive)
-11% (inactive)

Values were extracted from PubChem BioAssay (NCI).
